Reported OD450 values for a set of binders
- TARGET OR TEST SYSTEM: T1, human MSLN-FL-his protein (human, UniProt Q13421 296-580)
- T1 construct: Made in HEK293E cells, purified on nickel column; it is put last here; also called human MSLN full-length protein; hMSLN-FL-his; not shown: His tag
- T1 sequence (Q13421 other isoform, or with tags, fused parts or gaps): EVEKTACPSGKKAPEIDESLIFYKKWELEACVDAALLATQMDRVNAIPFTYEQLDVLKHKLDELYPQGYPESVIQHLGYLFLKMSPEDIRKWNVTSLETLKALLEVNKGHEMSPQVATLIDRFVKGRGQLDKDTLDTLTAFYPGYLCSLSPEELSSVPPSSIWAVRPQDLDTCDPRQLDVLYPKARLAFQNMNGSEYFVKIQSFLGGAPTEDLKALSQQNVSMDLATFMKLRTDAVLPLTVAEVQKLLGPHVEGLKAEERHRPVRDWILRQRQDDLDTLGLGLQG
- ASSAY DETAILS: ELISA on coated antigen, antibody 0.0001 nM
Use OD as the unit, but write only the number.

Here are 4 binders together with their reported answers.
BINDER: S009-F8-19.21 (antibody, human IgG1, kappa, V domains shown, Human-murine chimeric antibody, human IgG1 heavy and kappa light constant regions) VH: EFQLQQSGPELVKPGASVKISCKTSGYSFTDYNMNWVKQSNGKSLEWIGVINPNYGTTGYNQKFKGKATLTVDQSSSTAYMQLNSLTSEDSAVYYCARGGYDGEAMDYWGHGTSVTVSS VL: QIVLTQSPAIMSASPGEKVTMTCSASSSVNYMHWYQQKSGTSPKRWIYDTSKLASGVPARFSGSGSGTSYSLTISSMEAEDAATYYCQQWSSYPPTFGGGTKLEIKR
OD450, OD: 0.06
--
BINDER: S009-F8-31.22 (antibody, human IgG1, kappa, V domains shown, Human-murine chimeric antibody, human IgG1 heavy and kappa light constant regions) VH: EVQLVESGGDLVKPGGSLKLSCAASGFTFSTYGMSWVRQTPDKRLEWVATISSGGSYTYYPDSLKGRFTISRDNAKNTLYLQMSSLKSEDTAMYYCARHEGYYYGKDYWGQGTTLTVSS VL: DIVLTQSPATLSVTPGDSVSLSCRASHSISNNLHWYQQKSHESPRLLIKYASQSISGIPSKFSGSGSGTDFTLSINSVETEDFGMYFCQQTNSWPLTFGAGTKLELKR
OD450, OD: 0.08
--
BINDER: S009-F8-15.19 (antibody, human IgG1, kappa, V domains shown, Human-murine chimeric antibody, human IgG1 heavy and kappa light constant regions) VH: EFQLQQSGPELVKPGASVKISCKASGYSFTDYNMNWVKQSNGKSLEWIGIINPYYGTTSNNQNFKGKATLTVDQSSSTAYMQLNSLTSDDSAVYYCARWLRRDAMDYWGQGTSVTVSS VL: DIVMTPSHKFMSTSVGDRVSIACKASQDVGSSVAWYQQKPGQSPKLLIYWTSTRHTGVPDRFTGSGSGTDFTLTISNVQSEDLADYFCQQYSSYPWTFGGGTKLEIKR
OD450, OD: 0.05
--
BINDER: S009-F8-28.23 (antibody, human IgG1, kappa, V domains shown, Human-murine chimeric antibody, human IgG1 heavy and kappa light constant regions) VH: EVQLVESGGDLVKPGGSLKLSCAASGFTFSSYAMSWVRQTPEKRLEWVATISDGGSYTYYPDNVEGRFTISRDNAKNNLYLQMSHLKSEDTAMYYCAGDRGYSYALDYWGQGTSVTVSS VL: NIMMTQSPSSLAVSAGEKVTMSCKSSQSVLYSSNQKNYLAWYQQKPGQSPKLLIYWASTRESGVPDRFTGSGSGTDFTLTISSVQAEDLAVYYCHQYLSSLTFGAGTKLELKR
OD450, OD: 0.05

Ask: Requested field: OD450. Item: S009-F8-32.3 (antibody, human IgG1, kappa, V domains shown, Human-murine chimeric antibody, human IgG1 heavy and kappa light constant regions) VH: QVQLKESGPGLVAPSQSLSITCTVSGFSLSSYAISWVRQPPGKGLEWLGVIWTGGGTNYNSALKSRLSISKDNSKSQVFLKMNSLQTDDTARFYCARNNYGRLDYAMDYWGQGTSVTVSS VL: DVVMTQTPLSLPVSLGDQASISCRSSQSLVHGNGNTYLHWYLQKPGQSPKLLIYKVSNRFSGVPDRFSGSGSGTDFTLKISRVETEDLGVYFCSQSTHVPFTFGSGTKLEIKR
Reply: 0.07

These entries and their values trace back to patent US20250250357A1.
